The measured values listed here are drawn from ChEMBL document CHEMBL4000211.

- System: A549
- method summary: Antiproliferative activity against human A549 cells after 48 hrs by MTT assay
- Assay type: functional, cell-based
- conditions used: A549, 48 h
property name: IC50

Would you please look over these solved cases?
[[record]]
mol_smiles = "C[C@@H]1C(C=O)=C[C@H]2[C@@H](c3cccc(F)c3O[C@@H]2C)[C@@]12C(=O)Nc1ccccc12"
subject_of_test = "A549"
property_name = "IC50"
result = "> 30 µM"

[[record]]
mol_smiles = "C[C@@H]1C(C=O)=C[C@H]2[C@@H](c3ccccc3O[C@@H]2C)[C@@]12C(=O)Nc1cc(Cl)ccc12"
subject_of_test = "A549"
property_name = "IC50"
result = "> 30 µM"

[[record]]
mol_smiles = "CC[C@@H]1C(C=O)=C[C@H]2[C@@H](c3ccccc3O[C@@H]2CC)[C@@]12C(=O)Nc1ccccc12"
subject_of_test = "A549"
property_name = "IC50"
result = "> 30 µM"


Supply IC50 value. Item: "CCC[C@@H]1C(C=O)=C[C@H]2[C@@H](c3ccccc3O[C@@H]2CCC)[C@@]12C(=O)Nc1ccccc12"
> 30 µM

Look up and report measured IC50 for this entry: "C[C@@H]1C(C=O)=C[C@H]2[C@@H](c3ccccc3O[C@@H]2C)[C@@]12C(=O)N(c1ccccc1)c1ccccc12"
> 30 µM

Annotate the compound "C[C@@H]1C(C=O)=C[C@H]2[C@@H](c3cc([N+](=O)[O-])ccc3O[C@@H]2C)[C@@]12C(=O)Nc1ccccc12" with its measured IC50.
> 30 µM

Tell me measured IC50 for "C[C@@H]1C(C=O)=C[C@H]2[C@@H](c3ccccc3OC2(C)C)[C@@]12C(=O)Nc1ccccc12" please.
> 30 µM
